# target.of.assay: Chk1 (Homo sapiens)
# Construct: purchased Upstate Biotechnology
# Sequence (O14757 whole entry): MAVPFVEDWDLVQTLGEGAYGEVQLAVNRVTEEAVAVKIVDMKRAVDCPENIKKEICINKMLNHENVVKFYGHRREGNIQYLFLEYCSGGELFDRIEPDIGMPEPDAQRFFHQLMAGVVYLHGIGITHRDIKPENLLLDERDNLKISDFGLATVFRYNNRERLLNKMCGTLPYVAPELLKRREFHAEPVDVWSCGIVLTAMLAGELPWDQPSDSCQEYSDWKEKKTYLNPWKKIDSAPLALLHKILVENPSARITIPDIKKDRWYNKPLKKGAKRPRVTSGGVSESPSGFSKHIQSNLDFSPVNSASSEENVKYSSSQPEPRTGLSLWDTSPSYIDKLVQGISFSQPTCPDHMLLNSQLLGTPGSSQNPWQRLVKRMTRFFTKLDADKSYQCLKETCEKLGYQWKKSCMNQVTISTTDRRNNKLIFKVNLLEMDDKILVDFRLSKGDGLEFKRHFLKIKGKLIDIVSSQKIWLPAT
# assay.name: Chk1 assay: incorporation of γ-33P ATP into immobilized myelin basic protein
# Type: biochemical
# assay.context: Table 11; Chk1 only
# Description: Chk1 and Chk2 assays were performed by measuring incorporation of γ-^33P ATP into immobilized myelin basic protein (MBP). […] Each data point was measured in duplicate, and at least two duplicate assays were performed for each individual compound determination. […] The above assay procedure can be used to determine the IC50 for inhibition and/or the inhibition constant Ki. […] The Ki for a compound may be determined from the IC50 based on three assumptions. […]
pIC50: −log10 of the molar value.
measurement.type: pIC50

| compound | measurement.type | result |
| --- | --- | --- |
| NC(=O)c1nc(-c2ccc(F)c(F)c2)cnc1N [compound 21] | pIC50 | < 5.00 |
| Nc1ncc(-c2ccccc2)nc1C(=O)NO [compound 49] | pIC50 | 5.00 to 6.00 |
| CNC(=O)c1nc(-c2ccc(F)c(C)c2)cnc1N [compound 61] | pIC50 | 6.00 to 7.30 |
| Nc1ncc(-c2ccccc2)nc1C(=O)NC1CCCC1 [compound 8] | pIC50 | < 5.00 |
| CNC(=O)c1nc(-c2ccc(F)cc2)cnc1N [compound 22] | pIC50 | 5.00 to 6.00 |

pIC50 measured on CCOc1ccc(-c2cnc(N)c(C(N)=O)n2)cc1 [compound 23] = 5.00 to 6.00

pIC50 measured on Cc1ccccc1-c1cnc(N)c(C(N)=O)n1 [compound 16] = < 5.00

pIC50 measured on CCOc1cccc(-c2cnc(N)c(C(=O)NC)n2)c1 [compound 50] = 5.00 to 6.00

pIC50 measured on Nc1ncc(-c2ccccc2)nc1C(=O)NCC1CCCO1 (centres unmarked) [compound 13] = < 5.00

pIC50 measured on NC(=O)c1nc(-c2cc3ccccc3o2)cnc1N [compound 37] = < 5.00

pIC50 measured on NNC(=O)c1nc(-c2ccccc2)cnc1N [compound 48] = 5.00 to 6.00
